procedure-text: Mouse PK evaluation, plasma, IV
measurement-parameters: CD-1, mouse, plasma, intravenous, 3 mg/kg, Plasma concentration, Mouse 2, 3 mg/kg IV, CD-1 mice, 0.083 h
observation-type: concentration at 0.083 h (ng/mL)

- compound: "CN(C)CCCn1c(N)nc2ccc3c(c21)CC(CO)O3 (stereo not shown)"
  measured-number: 1070

----------
procedure-text: Mouse PK evaluation, plasma, IV
measurement-parameters: CD-1, mouse, plasma, iv, 3 mg/kg, AUClast, Mouse 3, 3 mg/kg IV, CD-1 mice

- molecule: "CN(C)CCCn1c(N)nc2ccc3c(c21)CC(CO)O3 (stereo not shown)"
  AUC(0-t), ng·h/mL: 821

----------
procedure-text: Mouse PK evaluation, plasma, IV
measurement-parameters: CD-1, mouse, plasma, intravenous, 3 mg/kg, Plasma concentration, Mean, 3 mg/kg IV, CD-1 mice, 0.083 h
observation-type: concentration at 0.083 h (ng/mL)

- molecule: "CN(C)CCCn1c(N)nc2ccc3c(c21)CC(CO)O3 (stereo not shown)"
  observation-type: "concentration at 0.083 h"
  unit-annotation: "ng/mL"
  measured-number: 1170

----------
procedure-text: Mouse PK evaluation, plasma, IV
measurement-parameters: CD-1, mouse, in vivo, iv, 3 mg/kg, AUCInf, Mouse 3, 3 mg/kg IV, CD-1 mice

- molecule: "CN(C)CCCn1c(N)nc2ccc3c(c21)CC(CN(C)C)O3 (single isomer, unassigned) [Compound E1]"
  AUC(0-inf) / ng·h/mL: 470

----------
procedure-text: Mouse PK evaluation, plasma, IV
measurement-parameters: CD-1, mouse, in vivo, 3 mg/kg, Plasma concentration, Mean, 3 mg/kg IV, CD-1 mice, 0.25 h
observation-type: concentration at 0.25 h (ng/mL)

- compound: "CN(C)CCCn1c(N)nc2ccc3c(c21)CC(CN(C)C)O3 (single isomer, unassigned) [Compound E1]"
  observation-type: "concentration at 0.25 h"
  measured-number: 131

----------
Tested on: SUFU-KO-Light cells expressing Gli-luciferase
procedure-text: Dose-effect curves, dual-Glo luciferase, Compusyn
Format: cell-based
measurement-parameters: read-out: EC50 as single agent

- compound: "CN(C)CCCn1c(N)nc2ccc3c(c21)CC(CN(C)C)O3 (single isomer, unassigned) [Compound E2]"
  unit-annotation: "nM"
  EC50: 60

----------
procedure-text: Mouse PK evaluation, plasma, IV
measurement-parameters: CD-1, mouse, in vivo, iv, 3 mg/kg, T1/2, Mouse 2, 3 mg/kg IV, CD-1 mice

- compound: "CN(C)CCCn1c(N)nc2ccc3c(c21)CC(CN(C)C)O3 (single isomer, unassigned) [Compound E2]"
  half-life, h: 14.2

----------
procedure-text: Neutral Red (Toxicity) of the antiviral screening
measurement-parameters: African green monkey, Vero 76 cells

- compound: "CN(C)CCCn1c(N)nc2ccc3c(c21)CC(CO)O3 (centres unmarked) [DD041]"
  CC50: "> 100 µM"
- compound: "O=c1cnn([C@@H]2O[C@H](CO)[C@@H](O)[C@H]2O)c(=O)[nH]1 [Compound 6-azauridine, 6-azauridine, reference compound]"
  CC50: "26.5 µg/mL"

----------
procedure-text: Neutral Red (Toxicity) of the antiviral screening
measurement-parameters: human, Huh7 cells, CC50, Control drug; Assay No. 2; Neutral Red (Cytopathic effect/Toxicity) line
observation-type: CC50 (µg/mL)

- compound: "O=c1cnn([C@@H]2O[C@H](CO)[C@@H](O)[C@H]2O)c(=O)[nH]1 [Compound 6-azauridine, 6-azauridine, reference compound]"
  measured-number: 27

----------
System: Rift Valley Fever Virus (RVFV)
procedure-text: microbe, parasite or virus in culture
Format: cell-based
measurement-parameters: Rift Valley fever virus
pEC50: −log10 of the molar value.

- compound: "CN(C)CCCn1c(N)nc2ccc3c(c21)CC(CN(C)C)O3 (single isomer, unassigned) [Compound E2]"
  pEC50: 6.35

----------
procedure-text: Mouse PK evaluation, plasma, IV
measurement-parameters: CD-1, mouse, plasma, intravenous, 3 mg/kg, Plasma concentration, Mouse 2, 3 mg/kg IV, CD-1 mice, 1 h

- compound: "CN(C)CCCn1c(N)nc2ccc3c(c21)CC(CO)O3 (stereo not shown)"
  concentration at 1 h / ng/mL: 152

----------
procedure-text: Neutral Red (Toxicity) of the antiviral screening
measurement-parameters: African green monkey

- compound: "CN(C)CCCn1c(N)nc2ccc3c(c21)CC(CN(C)C)O3 (racemic)"
  CC50 (µM): 20

----------
procedure-text: Mouse PK evaluation, plasma, IV
measurement-parameters: CD-1, mouse, in vivo, iv, 3 mg/kg, AUClast, Mouse 1, 3 mg/kg IV, CD-1 mice

- molecule: "CN(C)CCCn1c(N)nc2ccc3c(c21)CC(CN(C)C)O3 (single isomer, unassigned) [Compound E1]"
  AUC(0-t), ng·h/mL: 321

----------
procedure-text: Mouse PK evaluation, plasma, IV
measurement-parameters: CD-1, mouse, in vivo, 3 mg/kg, Plasma concentration, Mouse 2, 3 mg/kg IV, CD-1 mice, 0.25 h

- compound: "CN(C)CCCn1c(N)nc2ccc3c(c21)CC(CN(C)C)O3 (single isomer, unassigned) [Compound E1]"
  concentration at 0.25 h: "126 ng/mL"

----------
procedure-text: Mouse PK evaluation, plasma, IV
measurement-parameters: CD-1, mouse, in vivo, iv, 3 mg/kg, MRTInf_obs, Mean, 3 mg/kg IV, CD-1 mice

- compound: "CN(C)CCCn1c(N)nc2ccc3c(c21)CC(CN(C)C)O3 (single isomer, unassigned) [Compound E2]"
  unit-annotation: "h"
  MRT inf: 9.9

----------
procedure-text: Mouse PK evaluation, plasma, IV
measurement-parameters: CD-1, mouse, in vivo, iv, 3 mg/kg, AUCInf, Mouse 2, 3 mg/kg IV, CD-1 mice

- compound: "CN(C)CCCn1c(N)nc2ccc3c(c21)CC(CN(C)C)O3 (single isomer, unassigned) [Compound E2]"
  AUC(0-inf) (ng·h/mL): 444

----------
procedure-text: Mouse PK evaluation, plasma, IV
measurement-parameters: CD-1, mouse, plasma, iv, 3 mg/kg, AUClast, Mouse 2, 3 mg/kg IV, CD-1 mice
observation-type: AUC(0-t) (ng·h/mL)

- compound: "CN(C)CCCn1c(N)nc2ccc3c(c21)CC(CO)O3 (stereo not shown) [DD041]"
  measured-number: 753

----------
procedure-text: Mouse PK evaluation, plasma, IV
measurement-parameters: CD-1, mouse, plasma, intravenous, 3 mg/kg, Plasma concentration, Mouse 2, 3 mg/kg IV, CD-1 mice, 8 h

- compound: "CN(C)CCCn1c(N)nc2ccc3c(c21)CC(CO)O3 (stereo not shown)"
  concentration at 8 h, ng/mL: 6

----------
procedure-text: Mouse PK evaluation, plasma, IV
measurement-parameters: CD-1, mouse, plasma, intravenous, 3 mg/kg, Plasma concentration, Mean, 3 mg/kg IV, CD-1 mice, 0.5 h

- compound: "CN(C)CCCn1c(N)nc2ccc3c(c21)CC(CO)O3 (stereo not shown)"
  concentration at 0.5 h [ng/mL]: 281

----------
procedure-text: Mouse PK evaluation, plasma, IV
measurement-parameters: CD-1, mouse, in vivo, 3 mg/kg, Plasma concentration, Mean, 3 mg/kg IV, CD-1 mice, 1 h

- molecule: "CN(C)CCCn1c(N)nc2ccc3c(c21)CC(CN(C)C)O3 (single isomer, unassigned) [Compound E1]"
  concentration at 1 h, ng/mL: 42.9

----------
procedure-text: Mouse PK evaluation, plasma, IV
measurement-parameters: CD-1, mouse, in vivo, 3 mg/kg, Plasma concentration, Mouse 1, 3 mg/kg IV, CD-1 mice, 0.25 h

- compound: "CN(C)CCCn1c(N)nc2ccc3c(c21)CC(CN(C)C)O3 (single isomer, unassigned) [Compound E1]"
  unit-annotation: "ng/mL"
  concentration at 0.25 h: 113

----------
procedure-text: Mouse PK evaluation, plasma, IV
measurement-parameters: CD-1, mouse, plasma, iv, 3 mg/kg, T1/2, Mouse 2, 3 mg/kg IV, CD-1 mice
observation-type: half-life (h)

- molecule: "CN(C)CCCn1c(N)nc2ccc3c(c21)CC(CO)O3 (stereo not shown)"
  observation-type: "half-life"
  measured-number: 4.65

----------
procedure-text: Mouse PK evaluation, plasma, IV
measurement-parameters: CD-1, mouse, plasma, intravenous, 3 mg/kg, Plasma concentration, Mouse 2, 3 mg/kg IV, CD-1 mice, 24 h

- compound: "CN(C)CCCn1c(N)nc2ccc3c(c21)CC(CO)O3 (stereo not shown)"
  concentration at 24 h [ng/mL]: 1.05

----------
procedure-text: Mouse PK evaluation, plasma, IV
measurement-parameters: CD-1, mouse, plasma, intravenous, 3 mg/kg, Plasma concentration, Mouse 1, 3 mg/kg IV, CD-1 mice, 8 h

- compound: "CN(C)CCCn1c(N)nc2ccc3c(c21)CC(CO)O3 (stereo not shown) [DD041]"
  unit-annotation: "ng/mL"
  concentration at 8 h: 9.69
